// provenance: PubChem BioAssay (NCI)

- Test system: OVCAR-8 ovarian
- Assay text: NCI tumour cell line growth inhibition, 48 h; in the data active = GI50 below about 0.43 µM; inactive = the rest
One label from this list, please: active, inactive

Field: example entries. Status: answers known.
O=C1NC(=O)[C@@H](c2c[nH]c3ccccc23)[C@@H]1c1c[nH]c2ccccc12    inactive
O=C1CC(c2ccsc2)c2snc(-c3ccc(Cl)cc3)c2N1 (configuration not stated)    inactive
O=C1/C(=C/c2ccc(Cl)cc2)CN(C(=O)CCN2CCC(=NO)CC2)C/C1=C\c1ccc(Cl)cc1    inactive
O=c1c2c(=NCCN3CCCC3)cc3c(=O)n(CCCN4CCOCC4)c(=O)c4ccc(c(O)n1CCCN1CCOCC1)c2c4-3    active
CCCCCCCCCCC[C@@H](C[C@H]1OC(=O)[C@H]1CCCCCC)OC(=O)[C@@H](CC(C)C)NC=O    inactive
COc1cc(C(=O)O/N=C(\N)Cc2cccc3ccccc23)cc(OC)c1OC    inactive

query: Per the records of this test, what outcome belongs to COc1ccc2c(c1)C(=O)c1c-2c(N2CCN(C(=O)CNCCN(C)C)CC2)nc2ccccc12 ?
result: inactive

query: Dear all, I need the recorded test outcome for O=C(Cn1c(C(=O)c2ccc(Cl)cc2)nc(-c2ccccc2)c1-c1ccccc1)c1ccc(Cl)cc1 , thank you.
result: inactive

query: Hi, do you know how O=C(Cc1ccc(Nc2ccnc(C(F)(F)F)c2)cc1)Nc1cc(Cl)ccc1O came out in this test?
result: inactive

query: Entry COc1ccc(-c2nc(-c3ccccn3)c(-c3ccccn3)n2CC(C)C)cc1OC1CCCC1 : call = ?
result: inactive

query: Name the outcome recorded for O=C(Oc1ccccc1Cl)c1ccccc1Nc1cccc(C(F)(F)F)c1 in the assay.
result: inactive

query: Dear all, I need the recorded test outcome for Cc1cc(NCc2cc(Nc3ccnc4cc(Cl)ccc34)ccc2F)nc(N2CCSCC2)n1 , thank you.
result: inactive

query: Write down the call the test reported for this compound. Item: O=C(c1ccco1)c1nc2cc(C(F)(F)F)ccc2[n+]([O-])c1C(F)(F)F
result: inactive

query: Which outcome was assigned to COc1ccc(-n2cc(-c3cc(OC)c(OC)c(OC)c3)[nH]c2=S)cc1Cl in this test?
result: inactive

query: So what was the verdict on CC[C@H](C)[C@H](NC(=O)NC(C)(C)C)C(=O)N(C)[C@H](C[C@@H](OC(C)=O)c1nc(C(=O)N[C@@H](Cc2ccccc2)C[C@H](C)C(=O)OC)cs1)C(C)C in this test?
result: inactive

query: Per the records of this test, what outcome belongs to Nc1nc(-c2ccc(Cl)cc2)cc(-c2ccc(Cl)cc2)c1-c1nc2ccccc2o1 ?
result: inactive

query: Per the assay record, what outcome was assigned to CC(C)=CC(=O)N[C@@H]1CC2CCC3C(CC[C@@]4(C)C3CC[C@@H]4C(C)N(C)C)[C@@]2(C)C[C@@H]1O (some centres not stated) ?
result: inactive
